inhibition at 1 µM by entry:
# system-name: hNaV1.1 (SCN1A) (Homo sapiens, UniProt P35498)
# protocol-details: Use-dependent inhibition of the CNS NaV1.1 sodium channel
# Assay type: cell-based
# condition-description: % inhibition, use-dependent block at 1 uM; 25 Hz; read-out: Nav1.1 UDB 25 Hz 1 uM
Use % as the unit, but write only the number.

O=C1Oc2ccc(-c3ccc(C(F)(F)F)cc3)cc2CN1Cc1ccccn1 44.9
COc1cc(C(F)(F)F)ccc1-c1ccc2c(c1)CN(Cc1ncccn1)C(=O)O2 26.9
Cc1csc(CN2Cc3cc(-c4ccc(OC(F)(F)F)cc4)ccc3OC2=O)n1 32.9
O=C1Oc2ccc(-c3ccc(OC(F)(F)F)cc3)cc2CN1Cc1ccccn1 29.1

Query: For the compound shown here, Cc1ccnc(CN2Cc3cc(-c4ccc(OC(F)(F)F)cc4)ccc3OC2=O)n1 , give the reported inhibition at 1 µM.
Reply: 44.7

* * *

# system-name: hNaV1.1 (SCN1A) (Homo sapiens, UniProt P35498)
# protocol-details: Use-dependent inhibition of the CNS NaV1.1 sodium channel
# Format: cell-based
# condition-description: % inhibition, use-dependent block at 10 uM; 25 Hz; read-out: Nav1.1 UDB 25 Hz 10 uM
endpoint: inhibition at 10 µM (%)
// note: answer is a bare numeric in %

molecule	inhibition at 10 µM [%]
O=C1Oc2ccc(-c3ccc4c(c3)OC(F)(F)O4)cc2CN1Cc1ncccn1 [Example 26]	66.1
COc1cc(OC(F)(F)F)ccc1-c1ccc2c(c1)CN(CCc1ncccn1)C(=O)O2 [Example 18]	73.4
Cc1csc(CN2Cc3cc(-c4ccc(Cl)c(Cl)c4)ccc3OC2=O)n1 [Example 56]	10.7

Query: // returns reported inhibition at 10 µM for input Cc1cnc(CN2Cc3cc(-c4ccc(C(F)(F)F)cc4C)ccc3OC2=O)nc1 [Example 43]
Reply: 51.4

* * *

Entries and their inhibition at 10 µM values follow.
# system-name: hNaV1.1 (SCN1A) (Homo sapiens)
# protocol-details: Use-dependent inhibition of the CNS NaV1.1 sodium channel
# Format: cell-based
# condition-description: % inhibition, use-dependent block at 10 uM; 25 Hz; read-out: Nav1.1 UDB 25 Hz 10 uM
I only need the number, in %, no unit after it.

Reference set, count: 2
compound	system-name	experimental-result
O=C1Oc2ccc(-c3ccc(OC(F)(F)F)cc3F)cc2CN1Cc1ncccn1	hNaV1.1 (SCN1A) (Homo sapiens)	42.4
CC1c2cc(-c3cccc(OC(F)(F)F)c3)ccc2OC(=O)N1Cc1ncccn1 (centres unmarked)	hNaV1.1 (SCN1A) (Homo sapiens)	71.2

Query: Could you share which inhibition at 10 µM value was measured for Cc1csc(CN2Cc3cc(-c4ccc(OC(F)(F)F)c(C)c4)ccc3OC2=O)n1 ?
Reply: 36.7

Query: Which inhibition at 10 µM value belongs to Cc1ccnc(CN2Cc3cc(-c4ccc(OC(F)(F)F)cc4)ccc3OC2=O)n1 ?
Reply: 86.8

Query: Recorded inhibition at 10 µM of O=C1Oc2ccc(-c3ccc(OC(F)(F)F)cc3)cc2CN1Cc1ncccn1 , please.
Reply: 91.6

Query: Suppose we examine the compound CC(C)Oc1cc(OC(F)(F)F)ccc1-c1ccc2c(c1)CN(Cc1ncccn1)C(=O)O2 ; what inhibition at 10 µM value has been reported?
Reply: 73.4

Query: What does the data say about its inhibition at 10 µM? Entry: COc1cc(OC(F)(F)F)ccc1-c1ccc2c(c1)CN(Cc1cccc(C)n1)C(=O)O2
Reply: 78.6

Query: Fill in the blank: the reported inhibition at 10 µM of O=C1Oc2ccc(-c3ccc(C(F)(F)F)cc3)cc2CN1Cc1ccncc1 is ____.
Reply: 22.6
